Please respond with reported MIC for every item in the list.
- Tested on: Klebsiella pneumoniae Y-60
- PROTOCOL: Antibacterial spectrum, MIC by agar dilution method
- Format: cell-based
- TEST SETTINGS: Y60, pH 7.2, strain produces gentamicin adenyltransferase, read-out: Minimum Inhibitory Concentration
Write the value in µg/mL as a bare number.

MIC recorded for this compound, CNCC1CCC(N)C(OC2C(N)CC(NC(=O)C(O)CCN)C(OC3OCC(C)(O)C(NC)C3O)C2O)O1 (single isomer, unassigned) [reference compound] , is 0.2

MIC recorded for this compound, CC1(O)COC(OC2C(NC(=O)C(O)CN)CC(N)C(OC3OC(CN)CCC3N)C2O)C(O)C1N (racemic) , is 0.78

MIC recorded for this compound, CNCC1CCC(N)C(OC2C(N)CC(NC(=O)C(O)CCN)C(OC3OCC(C)(O)C(N)C3O)C2O)O1 (single isomer, unassigned) , is 0.78

---

Please respond with reported MIC for every item in the list.
- Tested on: Klebsiella pneumoniae Y-60
- PROTOCOL: Antibacterial spectrum, MIC by agar dilution method
- Format: cell-based
- TEST SETTINGS: Y60, pH 7.2, strain produces gentamicin adenyltransferase, read-out: Minimum Inhibitory Concentration
- From the text: XK-62-2, 1-N-[L-(-)-α-hydroxy-γ-aminobutyryl] XK-62-2, Compounds (I-1), (I-2), (II-1) and (II-2) against various Gram-negative and Gram-positive bacteria determined by agar dilution method at pH 7.2. ^4 produces gentamicin adenyltransferase
Write the value in µg/mL as a bare number.

MIC recorded for this molecule, CNCC1CCC(N)C(OC2C(N)CC(NC(=O)C(O)CN)C(OC3OCC(C)(O)C(N)C3O)C2O)O1 (racemic) , is 1.56

MIC recorded for this molecule, CC1(O)COC(OC2C(NC(=O)C(O)CCN)CC(N)C(OC3OC(CN)CCC3N)C2O)C(O)C1N (single isomer, unassigned) , is 0.78

MIC recorded for this molecule, CNCC1CCC(N)C(OC2C(N)CC(NC(=O)C(O)CN)C(OC3OCC(C)(O)C(NC)C3O)C2O)O1 (racemic) [reference compound] , is 0.4

---

- Tested on: Escherichia coli KY Z-338
- PROTOCOL: Antibacterial spectrum, MIC by agar dilution method
- Assay type: cell-based
- TEST SETTINGS: KYZ338, pH 7.2, strain produces gentamicin adenyltransferase, read-out: Minimum Inhibitory Concentration
Please respond with reported MIC for every item in the list.
Write the value in µg/mL as a bare number.

MIC recorded for this molecule, CC1(O)COC(OC2C(NC(=O)C(O)CN)CC(N)C(OC3OC(CN)CCC3N)C2O)C(O)C1N (racemic) , is 0.78

MIC recorded for this molecule, CNCC1CCC(N)C(OC2C(N)CC(NC(=O)C(O)CCN)C(OC3OCC(C)(O)C(N)C3O)C2O)O1 (single isomer, unassigned) , is 0.4

MIC recorded for this molecule, CNCC1CCC(N)C(OC2C(N)CC(NC(=O)C(O)CN)C(OC3OCC(C)(O)C(N)C3O)C2O)O1 (racemic) , is 0.78

MIC recorded for this molecule, CNCC1CCC(N)C(OC2C(N)CC(NC(=O)C(O)CCN)C(OC3OCC(C)(O)C(NC)C3O)C2O)O1 (single isomer, unassigned) [reference compound] , is 0.2

MIC recorded for this molecule, CNCC1CCC(N)C(OC2C(N)CC(NC(=O)C(O)CN)C(OC3OCC(C)(O)C(NC)C3O)C2O)O1 (racemic) [reference compound] , is 0.2

MIC recorded for this molecule, CC1(O)COC(OC2C(NC(=O)C(O)CCN)CC(N)C(OC3OC(CN)CCC3N)C2O)C(O)C1N (single isomer, unassigned) , is 0.4

---

Please respond with reported MIC for every item in the list.
- Tested on: Pseudomonas aeruginosa Z-445
- PROTOCOL: Antibacterial spectrum, MIC by agar dilution method
- Format: cell-based
- TEST SETTINGS: Z445, pH 7.2, strain produces 6N-acetyltransferase Type III, read-out: Minimum Inhibitory Concentration
Write the value in µg/mL as a bare number.

MIC recorded for this molecule, CNCC1CCC(N)C(OC2C(N)CC(NC(=O)C(O)CN)C(OC3OCC(C)(O)C(N)C3O)C2O)O1 (racemic) , is 6.25

MIC recorded for this molecule, CNCC1CCC(N)C(OC2C(N)CC(NC(=O)C(O)CCN)C(OC3OCC(C)(O)C(NC)C3O)C2O)O1 (single isomer, unassigned) [reference compound] , is 6.25

MIC recorded for this molecule, CNCC1CCC(N)C(OC2C(N)CC(NC(=O)C(O)CCN)C(OC3OCC(C)(O)C(N)C3O)C2O)O1 (single isomer, unassigned) , is 6.25

MIC recorded for this molecule, CC1(O)COC(OC2C(NC(=O)C(O)CN)CC(N)C(OC3OC(CN)CCC3N)C2O)C(O)C1N (racemic) , is 6.25

MIC recorded for this molecule, CNCC1CCC(N)C(OC2C(N)CC(NC(=O)C(O)CN)C(OC3OCC(C)(O)C(NC)C3O)C2O)O1 (racemic) [reference compound] , is 3.12

MIC recorded for this molecule, CC1(O)COC(OC2C(NC(=O)C(O)CCN)CC(N)C(OC3OC(CN)CCC3N)C2O)C(O)C1N (single isomer, unassigned) , is 6.25

---

- PROTOCOL: Acute toxicity (LD50) in mice
- TEST SETTINGS: mouse, in vivo, route not stated
Mark each entry 1 if its LD50 sits below 200 mg/kg, and -1 for all others.

stdin: Record CNCC1CCC(N)C(OC2C(N)CC(NC(=O)C(O)CN)C(OC3OCC(C)(O)C(N)C3O)C2O)O1 (racemic) [II-1] : is its LD50 strictly below 200 mg/kg?
stdout: 1

stdin: Record CNCC1CCC(N)C(OC2C(N)CC(NC(=O)C(O)CN)C(OC3OCC(C)(O)C(NC)C3O)C2O)O1 (racemic) [reference compound] : is its LD50 strictly below 200 mg/kg?
stdout: 1

stdin: Record CNCC1CCC(N)C(OC2C(N)CC(NC(=O)C(O)CCN)C(OC3OCC(C)(O)C(NC)C3O)C2O)O1 (single isomer, unassigned) [reference compound] : is its LD50 strictly below 200 mg/kg?
stdout: 1

stdin: Record CNCC1CCC(N)C(OC2C(N)CC(NC(=O)C(O)CCN)C(OC3OCC(C)(O)C(N)C3O)C2O)O1 (single isomer, unassigned) [II-2] : is its LD50 strictly below 200 mg/kg?
stdout: -1

---

- Tested on: Pseudomonas aeruginosa BMH 1
- PROTOCOL: Antibacterial spectrum, MIC by agar dilution method
- Format: cell-based
- TEST SETTINGS: BMH1, pH 7.2, read-out: Minimum Inhibitory Concentration
OBSERVED PROPERTY: MIC

MIC recorded for this molecule, CNCC1CCC(N)C(OC2C(N)CC(NC(=O)C(O)CCN)C(OC3OCC(C)(O)C(N)C3O)C2O)O1 (single isomer, unassigned) , is 1.56 µg/mL

MIC recorded for this molecule, CNCC1CCC(N)C(OC2C(N)CC(NC(=O)C(O)CN)C(OC3OCC(C)(O)C(N)C3O)C2O)O1 (racemic) , is 1.56 µg/mL

MIC recorded for this molecule, CC1(O)COC(OC2C(NC(=O)C(O)CCN)CC(N)C(OC3OC(CN)CCC3N)C2O)C(O)C1N (single isomer, unassigned) , is 0.78 µg/mL

MIC recorded for this molecule, CNCC1CCC(N)C(OC2C(N)CC(NC(=O)C(O)CN)C(OC3OCC(C)(O)C(NC)C3O)C2O)O1 (racemic) [reference compound] , is 1.56 µg/mL

MIC recorded for this molecule, CC1(O)COC(OC2C(NC(=O)C(O)CN)CC(N)C(OC3OC(CN)CCC3N)C2O)C(O)C1N (racemic) , is 0.78 µg/mL

MIC recorded for this molecule, CNCC1CCC(N)C(OC2C(N)CC(NC(=O)C(O)CCN)C(OC3OCC(C)(O)C(NC)C3O)C2O)O1 (single isomer, unassigned) [reference compound] , is 0.78 µg/mL
